Tested on: mobilized peripheral blood CD34+ cells
Assay: CD34+ expansion assay
Assay type: cell-based
Conditions: Homo sapiens; read-out: CD34 Frequency EC50
Method: Approximately 3,000 mobilized peripheral blood CD34+ cells were plated per well in 384-well plate at a final volume of 45 μL in HSC growth media (SFEM supplemented with Pen/Strep, 50 ng/mL FLT3L, TPO, SCF and IL-6). Serial dilutions were made in HSC growth media with a top final concentration of 10 μM. 5 μL 10× stock was added to each well. The plate was gently tapped on all sides and incubated for 7 days at 37° C./5% CO2. […]
Value type: EC50

- Molecule: "Cc1ccc(-c2csc(-c3ccncc3)n2)c(C)c1"
  Assay target: "mobilized peripheral blood CD34+ cells"
  Result: "1000 to 5000 nM"
- Molecule: "CCCSc1nc(N)c(C(=O)Nc2ccccc2)cc1C#N"
  Assay target: "mobilized peripheral blood CD34+ cells"
  Result: "< 500 nM"
- Molecule: "Nc1cc(-c2ccc3c(c2)CCCC3)nn1-c1ccccc1"
  Assay target: "mobilized peripheral blood CD34+ cells"
  Result: "≥ 5000 nM"

Exam item: Please report the recorded EC50 for `Cc1ccc(NC(=O)c2cccc(OCc3c(C)noc3C)c2)c(Cl)c1` .
Marked response: 500 to 1000 nM

Exam item: Please report the recorded EC50 for `Cc1ccc2nc(-c3ccc(NC(=O)COC(=O)c4ccc(O)cc4O)cc3)sc2c1` .
Marked response: ≥ 5000 nM

Exam item: Please report the recorded EC50 for `CC(=O)N(C)Cc1cccc(NC(=O)c2n[nH]c3ccccc23)c1` .
Marked response: ≥ 5000 nM
